systemTested: SOS-mediated nucleotide exchange on Ras (Homo sapiens)
assayProtocol: SOS-mediated nucleotide exchange on Ras (BODIPY-GDP fluorescence)
measurementContext: Ras loaded with BODIPY-GDP, GTP and SOS added; EC50 from derived exchange rates
quantityKind: EC50

structurestring=C[C@@H](Nc1nc(Nc2ccc(F)c(Cl)c2)nc2c(NCCCN)cccc12)C1CC1 systemtested="SOS-mediated nucleotide exchange on Ras (Homo sapiens)" reportedmeasurement="5 to 30 µM"
structurestring=C[C@@H](Nc1nc(Nc2cc(F)cc(F)c2)nc2ccccc12)c1cccs1 systemtested="SOS-mediated nucleotide exchange on Ras (Homo sapiens)" reportedmeasurement="1 to 5 µM"
structurestring=C[C@@H](Nc1nc(Nc2cc(F)cc(C#N)c2)nc2ccccc12)C1CC1 systemtested="SOS-mediated nucleotide exchange on Ras (Homo sapiens)" reportedmeasurement="1 to 5 µM"

// moving on: another record for EC50
For "CNCc1cccc2c(N[C@H](C)C3CC3)nc(Nc3ccc(F)c(Cl)c3)nc12" , write its EC50. 5 to 30 µM

###

systemTested: UniProtKB Q07889
Sequence (Q07889 564-1049 limits assumed): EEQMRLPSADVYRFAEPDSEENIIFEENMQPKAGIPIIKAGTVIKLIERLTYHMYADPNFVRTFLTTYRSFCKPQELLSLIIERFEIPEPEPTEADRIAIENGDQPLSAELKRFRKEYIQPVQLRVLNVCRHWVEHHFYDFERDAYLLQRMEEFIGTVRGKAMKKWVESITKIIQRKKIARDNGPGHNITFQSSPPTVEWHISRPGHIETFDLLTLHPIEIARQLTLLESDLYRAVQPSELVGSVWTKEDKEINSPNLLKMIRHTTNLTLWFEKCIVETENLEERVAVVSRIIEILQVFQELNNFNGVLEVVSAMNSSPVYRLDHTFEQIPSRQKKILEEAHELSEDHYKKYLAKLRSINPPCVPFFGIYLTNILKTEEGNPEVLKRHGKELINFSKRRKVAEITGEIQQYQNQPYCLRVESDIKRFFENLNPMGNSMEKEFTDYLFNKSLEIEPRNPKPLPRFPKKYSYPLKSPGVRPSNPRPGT
pKi: −log10 of the molar value.
pKi values by entry

structurestring=C[C@@H](Nc1nc(NCC2CCCCC2)nc2c(C3=CCNCC3)cccc12)C(C)(C)C systemtested="UniProtKB Q07889" reportedmeasurement="< 5.30"

For "CC[C@@H](Nc1nc(NCC2CCCCC2)nc2c(C3=CCNCC3)cccc12)C1CC1" , write its pKi. > 6.00

Output measured pKi for this item: "C[C@@H](Nc1nc(NCC2CCC2)nc2c(C3=CCNCC3)cccc12)C1CC1" 5.30 to 6.00

###

systemTested: UniProt Q07889
assayProtocol: SOS-mediated nucleotide exchange on Ras (BODIPY-GDP fluorescence)
measurementContext: Ras loaded with BODIPY-GDP, GTP and SOS added; EC50 from derived exchange rates
pEC50: −log10 of the molar value.
quantityKind: pEC50

Please indicate pEC50 recorded for "C[C@@H](Nc1nc(NCc2cccc(Cl)c2F)nc2c(CN)cccc12)c1cccs1" 4.52 to 5.30

Name the recorded pEC50 of the item "C[C@@H](Nc1nc(Nc2ccc(F)c(Cl)c2)nc2c(NCCN)cccc12)C1CC1" in your answer. 4.52 to 5.30

Return pEC50 (reported value) for this compound: "Cc1cc(F)cc(Nc2nc(N[C@H](C)c3cccs3)c3cccc(C4=CCNCC4)c3n2)c1" 5.30 to 6.00

Identify measured pEC50 associated with "C[C@@H](Nc1nc(NCC2CCCCC2)nc2c(C3=CCNCC3)cccc12)C1CC1" 5.30 to 6.00

Please supply the value of reported pEC50 for the item "c1coc(CNc2nc(Nc3ccc4c(c3)CCC4)nc3ccccc23)c1" 4.52 to 5.30

Quickly give me recorded pEC50 for "C[C@@H](Nc1nc(Nc2ccc(F)c(Cl)c2)nc2c(NCCO)cccc12)C1CC1" < 4.52

Provide pEC50 value for the following compound: "Fc1cc(F)cc(Nc2nc(NCc3ncc[nH]3)c3ccccc3n2)c1" < 4.52

Quick one: give measured pEC50 for "CCC(CC)CNc1nc(Nc2ccc(F)c(Cl)c2)nc2c(C#N)cccc12" 5.30 to 6.00

###

systemTested: SOS-mediated nucleotide exchange on Ras (Homo sapiens)
assayProtocol: SOS-mediated nucleotide exchange on Ras (BODIPY-GDP fluorescence)
measurementContext: Ras loaded with BODIPY-GDP, GTP and SOS added; EC50 from derived exchange rates
Let's look at some compounds and their measured EC50.

compound="C[C@@H](Nc1nc(Nc2ccc(F)c(Cl)c2)nc2c(CC3CNC3)cccc12)C1CC1 [Example 113]" systemtested="SOS-mediated nucleotide exchange on Ras (Homo sapiens)" reportedmeasurement="1 to 5 µM"
compound="CC[C@@H](Nc1nc(Nc2cc(C)cc(F)c2)nc2c(CCN)cccc12)C1CC1 [Example 128]" systemtested="SOS-mediated nucleotide exchange on Ras (Homo sapiens)" reportedmeasurement="1 to 5 µM"
compound="C[C@@H](Nc1nc(Nc2ccc(F)c(Cl)c2)nc2c(C3CNC3)cccc12)C1CC1 [Example 61]" systemtested="SOS-mediated nucleotide exchange on Ras (Homo sapiens)" reportedmeasurement="1 to 5 µM"
compound="C[C@@H](Nc1nc(Nc2cc(F)c(F)c(F)c2)nc2ccccc12)C1CC1 [Example 6]" systemtested="SOS-mediated nucleotide exchange on Ras (Homo sapiens)" reportedmeasurement="5 to 30 µM"
compound="CC[C@@H](Nc1nc(Nc2ccc(F)c(Cl)c2)nc2ccccc12)c1cccs1 [Example 39]" systemtested="SOS-mediated nucleotide exchange on Ras (Homo sapiens)" reportedmeasurement="1 to 5 µM"

Give the value of EC50 reported for the following: Cc1cccc(CNc2nc(N[C@H](C)C3CC3)c3ccccc3n2)c1F [Example 26] 1 to 5 µM

Supply reported EC50 belonging to this compound: Cc1cc(F)cc(Nc2nc(N[C@H](C)C(C)(C)C)c3cccc(CN)c3n2)c1 [Example 131] 5 to 30 µM

Determine from records and report EC50 for C[C@@H](Nc1nc(Nc2ccc(F)c(Cl)c2)nc2c(C3=CCN(C)CC3)cccc12)C1CC1 [Example 120] 5 to 30 µM

###

systemTested: SOS-mediated nucleotide exchange on Ras (Homo sapiens)
assayProtocol: SOS-mediated nucleotide exchange on Ras (BODIPY-GDP fluorescence)
measurementContext: Ras loaded with BODIPY-GDP, GTP and SOS added; EC50 from derived exchange rates
pEC50: −log10 of the molar value.
List of pEC50 values.

compound=C[C@@H](Nc1nc(Nc2ccc(F)c(Cl)c2)nc2c(C3=CCOCC3)cccc12)C1CC1 reportedmeasurement="< 4.52"

State the measured pEC50 (SOS-mediated nucleotide exchange on Ras (Homo sapiens)) of "C[C@@H](Nc1nc(NCc2cccc(Cl)c2F)nc2c(C3=CCNCC3)cccc12)c1cccs1" 4.52 to 5.30

Recall the reported pEC50 of "FC(F)(F)Oc1cccc(Nc2nc(NCc3cccs3)c3ccccc3n2)c1" when tested on SOS-mediated nucleotide exchange on Ras (Homo sapiens). 4.52 to 5.30

Name the recorded pEC50 of "CCC(CC)CNc1nc(Nc2ccc(F)c(Cl)c2)nc2c(N3CCNCC3)cccc12" , assay system SOS-mediated nucleotide exchange on Ras (Homo sapiens). 4.52 to 5.30

System SOS-mediated nucleotide exchange on Ras (Homo sapiens). Read-out pEC50. Item "C[C@@H](Nc1nc(NCC2CCCC2)nc2ccccc12)C1CC1" . Report value. 5.30 to 6.00

###

systemTested: SOS-mediated nucleotide exchange on Ras (Homo sapiens, UniProt Q07889)
assayProtocol: SOS-mediated nucleotide exchange on Ras (BODIPY-GDP fluorescence)
measurementContext: Ras loaded with BODIPY-GDP, GTP and SOS added; EC50 from derived exchange rates
pEC50: −log10 of the molar value.
Reported pEC50 values are given for each entry in this list.

Recorded results for 3 compounds are shown here.
compound="C[C@@H](Nc1nc(NCc2cccc(C(F)(F)F)c2)nc2ccccc12)C1CC1 [Example 28]" quantitykind=pEC50 reportedmeasurement="4.52 to 5.30"
compound="Cc1cc(F)cc(Nc2nc(NC(C3CC3)C3CC3)c3cccc(C4=CCNCC4)c3n2)c1 [Example 108]" quantitykind=pEC50 reportedmeasurement="5.30 to 6.00"
compound="C[C@@H](Nc1nc(Nc2ccc(F)c(Cl)c2)nc2c(CN)cccc12)C(C)(C)C [Example 130]" quantitykind=pEC50 reportedmeasurement="4.52 to 5.30"

# evaluate next
Write down pEC50 measured for item C[C@@H](Nc1nc(Nc2ccc(F)c(Cl)c2)nc2ccccc12)c1cccs1 [Example 37] 5.30 to 6.00

###

systemTested: SOS-mediated nucleotide exchange on Ras (Homo sapiens)
assayProtocol: SOS-mediated nucleotide exchange on Ras (BODIPY-GDP fluorescence)
measurementContext: Ras loaded with BODIPY-GDP, GTP and SOS added; EC50 from derived exchange rates
Consider the following compounds and their measured EC50 readings.

compound="C[C@@H](Nc1nc(NCc2cccc(Cl)c2F)nc2c(CCN)cccc12)C1CC1 [Example 119]" systemtested="SOS-mediated nucleotide exchange on Ras (Homo sapiens)" quantitykind=EC50 reportedmeasurement="1 to 5 µM"
compound="Fc1ccc(Nc2nc(N[C@@H](C3CC3)C(F)(F)F)c3ccccc3n2)cc1Cl [Example 45]" systemtested="SOS-mediated nucleotide exchange on Ras (Homo sapiens)" quantitykind=EC50 reportedmeasurement="> 30 µM"
compound="CC[C@@H](Nc1nc(Nc2ccc(F)c(Cl)c2)nc2ccccc12)C1CCC1 [Example 42]" systemtested="SOS-mediated nucleotide exchange on Ras (Homo sapiens)" quantitykind=EC50 reportedmeasurement="1 to 5 µM"
compound="C[C@@H](Nc1nc(Nc2ccc(F)c(Cl)c2F)nc2ccccc12)C1CC1 [Example 30]" systemtested="SOS-mediated nucleotide exchange on Ras (Homo sapiens)" quantitykind=EC50 reportedmeasurement="5 to 30 µM"
compound="CC1CCC(CNc2nc(N[C@H](C)C3CC3)c3cccc(C4=CCNCC4)c3n2)CC1 (stereo partly drawn) [Example 104]" systemtested="SOS-mediated nucleotide exchange on Ras (Homo sapiens)" quantitykind=EC50 reportedmeasurement="1 to 5 µM"

Give the measured EC50 for C[C@@H](Nc1nc(Nc2ccc(F)c(Cl)c2)nc2c(CN)cccc12)c1cccs1 [Example 132] 5 to 30 µM

Using known records, supply EC50 for CC[C@@H](Nc1nc(Nc2ccc(F)c(Cl)c2)nc2c(CCN)cccc12)C1CC1 [Example 50] 1 to 5 µM

Answer with reported EC50 of CC[C@@H](Nc1nc(Nc2ccc(F)c(Cl)c2)nc2c(N3CCNCC3)cccc12)C1CC1 [Example 64] 1 to 5 µM

Report measured EC50; entry is Cc1cc(F)cc(Nc2nc(N[C@H](C)C3CC3)c3cccc(C4=CCNCC4)c3n2)c1 [Example 107] 1 to 5 µM

Complete the entry with EC50 for c1ccc(CNc2nc(Nc3ccccc3)nc3ccccc23)cc1 [Example 33] 5 to 30 µM

Look up EC50 of C[C@@H](Nc1nc(Nc2ccc(F)c(Cl)c2)nc2c(C3=CCNCC3)cccc12)C1CC1 [Example 62] and report it. < 1 µM

Specify measured EC50 for C=CC[C@@H](Nc1nc(Nc2ccc(F)c(Cl)c2)nc2c(C3=CCNCC3)cccc12)C1CC1 [Example 115] . 1 to 5 µM
